# ASSAYED_TARGET: LctM (Lactococcus lactis subsp. lactis, UniProt P37609)
# Sequence (P37609 whole entry): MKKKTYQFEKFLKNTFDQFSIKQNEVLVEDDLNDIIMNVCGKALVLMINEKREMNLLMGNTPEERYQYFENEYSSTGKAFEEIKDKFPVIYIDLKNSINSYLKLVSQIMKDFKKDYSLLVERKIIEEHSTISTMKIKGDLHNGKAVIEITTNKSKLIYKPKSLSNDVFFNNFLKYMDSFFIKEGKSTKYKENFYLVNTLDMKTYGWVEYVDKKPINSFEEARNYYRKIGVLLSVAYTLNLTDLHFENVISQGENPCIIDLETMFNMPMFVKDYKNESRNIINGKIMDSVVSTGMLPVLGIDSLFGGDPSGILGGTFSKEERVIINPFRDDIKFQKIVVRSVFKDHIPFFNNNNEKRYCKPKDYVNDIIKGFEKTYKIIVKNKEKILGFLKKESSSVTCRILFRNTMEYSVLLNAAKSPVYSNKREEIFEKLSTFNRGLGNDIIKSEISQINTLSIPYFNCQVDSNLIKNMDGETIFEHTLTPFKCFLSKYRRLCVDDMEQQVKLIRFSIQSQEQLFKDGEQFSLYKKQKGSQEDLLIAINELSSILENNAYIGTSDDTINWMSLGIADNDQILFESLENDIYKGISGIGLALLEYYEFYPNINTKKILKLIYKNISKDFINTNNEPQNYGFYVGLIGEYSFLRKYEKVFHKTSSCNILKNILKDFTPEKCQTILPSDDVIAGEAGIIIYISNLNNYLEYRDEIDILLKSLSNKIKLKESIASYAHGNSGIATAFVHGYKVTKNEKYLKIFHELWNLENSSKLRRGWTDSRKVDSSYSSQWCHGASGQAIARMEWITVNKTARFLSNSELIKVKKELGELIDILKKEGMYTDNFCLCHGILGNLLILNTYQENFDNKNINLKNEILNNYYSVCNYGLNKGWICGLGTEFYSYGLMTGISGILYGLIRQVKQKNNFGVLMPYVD
# PROTOCOL: LctM activity assay: dehydration and cyclization of peptide substrates, read out by MS
# Type: biochemical, Lactococcus lactis CNRZ 481
# PARTICULARS: ATP analog in place of ATP; EDTA added
OUTCOME_MEASURE: effect on LctM processing of His6-LctA

# SMILES_NOTATION, OUTCOME_MEASURE, MEASURED_RESULT
measured = [
    ("Nc1ncnc2c1ncn2[C@@H]1O[C@H](COP(=O)(O)OP(=O)(O)CP(=O)(O)O)[C@@H](O)[C@H]1O", "effect on LctM processing of His6-LctA", "completely abolished"),
    ("Nc1ncnc2c1ncn2[C@@H]1O[C@H](COP(=O)(O)OP(=O)(O)NP(=O)(O)O)[C@@H](O)[C@H]1O", "effect on LctM processing of His6-LctA", "completely abolished"),
]

Just for reference, patent US7785825B2 is where these values come from.
